Below, each entry is listed alongside its reported Kd.
# TESTED TARGET: T1, IIB-Fc:ALK7-Fc heterodimer (human ActRIIB ECD-Fc paired with human ALK7 ECD-Fc) (human, UniProt Q13705-1 19-134; Q8NER5-1 25-113)
# T1 construct: activin receptor type IIB (ActRIIB) extracellular domain, human, aa 19-134 of NP_001097.2; activin receptor-like kinase 7 (ALK7) extracellular domain, human, aa 25-113 of NP_660302.2; copies: 1 + 1
# T1 sequence (Q13705 19-134, chain 1 of 2): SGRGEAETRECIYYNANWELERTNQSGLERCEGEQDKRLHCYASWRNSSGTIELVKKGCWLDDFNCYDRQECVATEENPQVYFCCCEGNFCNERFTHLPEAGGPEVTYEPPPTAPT
# T1 sequence (Q8NER5 25-113, chain 2 of 2): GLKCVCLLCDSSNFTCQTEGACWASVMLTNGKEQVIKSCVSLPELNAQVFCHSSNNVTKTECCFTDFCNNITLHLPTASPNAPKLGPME
# TEST SUMMARY: SPR; Biacore 8K, 37 °C; Fc-fusion receptor dimers captured by anti-human Fc antibody on a CM5 chip (100-150 RU); ligands injected in two-fold dilution series (300 s association, 600 s dissociation); HBS-EP+ supplemented with 350 mM NaCl and 0.5 mg/mL BSA; 1:1 Langmuir model with a term for mass transport
# EXPERIMENTAL SETUP: both partners purified
EXPERIMENTAL READOUT: Kd

>>> val("GDF11 (ligand, human, UniProt O95390 299-407, looked up, source: generated in house) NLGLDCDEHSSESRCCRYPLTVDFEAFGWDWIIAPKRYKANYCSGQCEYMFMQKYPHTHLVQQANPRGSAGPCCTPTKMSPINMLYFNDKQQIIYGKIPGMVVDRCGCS")
"47.4 pM"
>>> val("BMP10 (ligand, human, UniProt O95393 317-424, looked up, source: bought: R&D Systems) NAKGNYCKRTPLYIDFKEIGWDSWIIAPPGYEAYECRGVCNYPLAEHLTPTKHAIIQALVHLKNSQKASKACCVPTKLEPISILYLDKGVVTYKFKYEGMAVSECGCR")
"70.6 pM"
>>> val("activin B (ligand, human, UniProt P09529 293-407, looked up, source: generated in house) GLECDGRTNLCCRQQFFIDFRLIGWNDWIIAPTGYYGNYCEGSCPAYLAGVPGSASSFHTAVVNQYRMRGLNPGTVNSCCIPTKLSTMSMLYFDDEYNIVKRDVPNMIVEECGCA")
"15.3 pM"
>>> val("BMP6 (ligand, human, UniProt P22004 375-513, looked up, source: bought: R&D Systems) SASSRRRQQSRNRSTQSQDVARVSSASDYNSSELKTACRKHELYVSFQDLGWQDWIIAPKGYAANYCDGECSFPLNAHMNATNHAIVQTLVHLMNPEYVPKPCCAPTKLNAISVLYFDDNSNVILKKYRNMVVRACGCH")
"715 pM"

// provenance: paper PMC8443706
